- target: human α2c adrenergic receptor (Homo sapiens)
- Construct: The entire coding region of α2c (1383 bp), including 2 bp of 5′ UT and 400 bp of 3′ UT; expressed in transfected cells; host or cells: LM(tk−) cells (L-α2c, ATCC CRL-11181), vector pCEXV-3
- Sequence (P18825 1-462): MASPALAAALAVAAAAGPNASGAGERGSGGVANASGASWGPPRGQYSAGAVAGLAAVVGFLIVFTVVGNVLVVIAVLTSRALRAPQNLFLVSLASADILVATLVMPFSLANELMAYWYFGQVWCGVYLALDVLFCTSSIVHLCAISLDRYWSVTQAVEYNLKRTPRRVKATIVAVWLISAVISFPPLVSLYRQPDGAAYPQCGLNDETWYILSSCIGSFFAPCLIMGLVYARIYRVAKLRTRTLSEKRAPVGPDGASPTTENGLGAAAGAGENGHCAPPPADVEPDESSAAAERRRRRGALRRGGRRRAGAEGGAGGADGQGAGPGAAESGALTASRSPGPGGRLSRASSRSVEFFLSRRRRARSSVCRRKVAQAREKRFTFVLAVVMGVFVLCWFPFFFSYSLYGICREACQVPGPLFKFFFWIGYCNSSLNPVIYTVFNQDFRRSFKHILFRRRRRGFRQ
- experimentalProtocol: α2 agonist activity: inhibition of forskolin-stimulated cAMP synthesis, α2c cells
- Format: cell-based
endpointName: EC50 (nM)
# number only, unit nM dropped from output

Query: Would you kindly share the measured EC50 for c1nc2c(cc1NC1=NCCN1)CCC2 ?
Reply: 16.2

###

- target: human α2b adrenergic receptor (Homo sapiens)
- Construct: expressed in transfected cells; host or cells: stably transfected cells, vector pcEXV-3; deposited line L-NGC-α2B (ATCC CRL-10275)
- Sequence (P18089 whole entry): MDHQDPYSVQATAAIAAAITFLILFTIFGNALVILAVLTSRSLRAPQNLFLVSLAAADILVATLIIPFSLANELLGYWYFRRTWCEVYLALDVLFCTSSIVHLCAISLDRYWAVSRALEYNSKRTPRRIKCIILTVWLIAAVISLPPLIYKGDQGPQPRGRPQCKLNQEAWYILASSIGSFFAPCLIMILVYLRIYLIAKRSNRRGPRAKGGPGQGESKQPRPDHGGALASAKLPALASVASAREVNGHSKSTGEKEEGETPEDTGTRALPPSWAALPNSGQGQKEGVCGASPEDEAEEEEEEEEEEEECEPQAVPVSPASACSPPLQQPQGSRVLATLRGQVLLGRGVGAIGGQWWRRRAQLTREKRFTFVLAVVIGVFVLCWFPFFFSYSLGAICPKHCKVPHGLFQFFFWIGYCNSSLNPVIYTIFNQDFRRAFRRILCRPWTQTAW
- experimentalProtocol: α2 agonist activity: inhibition of forskolin-stimulated cAMP synthesis, α2b cells
- Type: cell-based
- conditionInfo: inhibition of forskolin-stimulated cAMP, cloned human α2b; read-out: α2b pEC50 (converted)
- Description: Binding and functional assays were performed using stably transfected cells expressing human α adrenergic receptors. […] The agonist activity (expressed as pEC50) was measured as a function of the ability to inhibit the forskolin-stimulated synthesis of cyclic adenosine monophosphate (cAMP). […] The assessment of cAMP formation was determined by radioimmunoassay (cAMP radioimmunoassay kit; Advanced magnetics, Cambridge, Mass.). […]
Counter-ions that a name gives are not always drawn.
Below, each entry is listed with its recorded EC50.
# number only, unit nM dropped from output

# example entries with known answers
Brc1nc2c(c(Br)c1NC1=NCCN1)CCC2
91.2
CC(c1c[nH]cn1)c1cc(-c2ccccc2)nc2ccccc12 (stereo not shown) [Example 36, dihydrochloride]
2820
Cc1nc2c(c(C)c1NC1=NCCN1)CCC2
148

As a next step, examine the molecule that follows.
Query: Would you kindly share the measured EC50 for c1cc2c(cc1NC1=NCCN1)CCC2 ?
Reply: 36.3

###

Below, each entry is listed with its recorded log10(Ki).
- target: human α2c adrenergic receptor (Homo sapiens)
- Construct: The entire coding region of α2c (1383 bp), including 2 bp of 5′ UT and 400 bp of 3′ UT; expressed in transfected cells; host or cells: LM(tk−) cells (L-α2c, ATCC CRL-11181), vector pCEXV-3
- experimentalProtocol: Equilibrium competition binding, [3H]rauwolscine, cloned human α2c
- conditionInfo: cloned human α2c, membrane preparations, [3H]rauwolscine; read-out: α2c pKi (converted)
Where a name gives a salt, the structure may show the parent alone.
Would you kindly interpret these values as log10 of Ki expressed in nM?

# example entries with known answers
Cc1cccc(C(C)c2cnc[nH]2)c1C (centres unmarked) [Medetomidine, reference compound]
0.73
Brc1nc2c(c(Br)c1NC1=NCCN1)CCC2
2.40
CC(c1c[nH]cn1)c1cc(-c2ccccc2)nc2ccccc12 (centres unmarked) [Example 36, dihydrochloride]
1.21
Cc1nc2c(c(C)c1NC1=NCCN1)CCC2
2.49

As a next step, examine the molecule that follows.
Query: Would you kindly share the measured log10(Ki) for c1cc2c(cc1NC1=NCCN1)CCC2 ?
Reply: 1.14

From: patent US6777426B2
